Data provenance: ChEMBL document CHEMBL3351442

# System: HT-29
# assay protocol: Antiproliferative activity against human HT-29 cells by MTT assay
# Format: functional, cell-based
pIC50: −log10 of the molar value.
measurement label: pIC50

Cc1ccc(/C=C/c2ccccc2O)cc1	4.64

P. Oc1cc(O)cc(/C=C/c2ccccc2O)c1
Q. Cc1cc(C)cc(/C=C/c2cc(Br)ccc2O)c1
In: Which gives the smaller pIC50 number: P or Q ? Write down the label of the entry you select.
Out: P

I. COc1ccc(/C=C/c2cc(Br)ccc2O)c(OC)c1
II. Oc1ccc(/C=C/c2cc(O)cc(O)c2)cc1
III. Oc1ccc(/C=C/c2cc(Br)ccc2O)cc1
In: # ascending order, key=pIC50 Your task in answering is to list the labels in the requested order.
Out: II, III, I
(II: 4.06, III: 4.57, I: 5.00)

* * *

# Tested on: HT-29
# assay protocol: Antiproliferative activity against human HT-29 cells by MTT assay
# Assay type: functional, cell-based
measurement label: IC50 (µM)

Recorded results for 3 compounds are shown here.
COc1cc(/C=C/c2ccccc2O)cc(OC)c1	26.2
Oc1ccc(/C=C/c2ccccc2O)cc1	33.5
COc1cc(/C=C/c2cc(Br)ccc2O)cc(OC)c1OC	18.5

P. COc1cc(/C=C/c2cc(Br)ccc2O)cc(OC)c1
Q. Oc1ccccc1/C=C/c1ccc(Br)cc1
In: Which gives the smaller IC50 number: P or Q ? Write down the label of the entry you select.
Out: P
(P: 9.5 µM, Q: 14.4 µM)
